Source listed as the supplement of paper PMC6555819.

System: RXRa homodimer (NR concentration 180 nM)
Protocol text: PBM binding z-score (relative to random genomic background probes); higher = stronger binding; sequences stand for … in GC…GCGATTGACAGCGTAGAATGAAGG
Measured quantity: PBM binding z-score
Kindly provide the number alone.

Known PBM binding z-score results, listed for orientation:
Chain | PBM binding z-score
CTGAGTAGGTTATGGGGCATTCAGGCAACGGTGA | 0.713
CGTCAAAGTTCAATGTAACGTAACAGAAAGCAGC | 3.78

Query PBM binding z-score for `CCTACTGGGCCATTCAGAGGTCATTGACCATATG`
3.98

Query PBM binding z-score for `TCTGCTAGGTAAACGATGGTCAGCTAATCTGCTA`
0.132

Query PBM binding z-score for `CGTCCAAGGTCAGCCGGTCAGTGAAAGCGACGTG`
3.93

Query PBM binding z-score for `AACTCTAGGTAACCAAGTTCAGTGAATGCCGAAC`
0.269

Query PBM binding z-score for `AGTCAAAGTTCATCTAAGTAACGTAAGATATGCT`
5.21

Query PBM binding z-score for `CCTATTAGTTGACCATAAGGGCCACCGAAGCTCG`
0.414

Query PBM binding z-score for `GCTAGCAGGCCATTTGGGCCACTCAATGACGGGC`
-0.706

Query PBM binding z-score for `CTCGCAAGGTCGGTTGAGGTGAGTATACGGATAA`
1.01

Query PBM binding z-score for `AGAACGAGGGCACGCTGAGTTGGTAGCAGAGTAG`
1.19

Query PBM binding z-score for `ACAGACAGGTGAGTGAAGGTAACTTAGCTGGACG`
0.233

Query PBM binding z-score for `TAGCCAAGGTCATGGGCCAGTATACCACGCGAAC`
6.11

Query PBM binding z-score for `TAGCCTAGGTCATCCGGGCCAGTATAGTGTCGGC`
2.96

Query PBM binding z-score for `GCTTGTAGATCATGGTTAAGAAAGACTAAGCTAA`
-0.538

Query PBM binding z-score for `GATACAGGGTCAACGCCAGAGTACGCGTATTGAT`
6.68

Query PBM binding z-score for `GGAACCAGGGCAAGTTGATAGCAGAGTTTGATGG`
0.254

###

Tested on: LXRa:RXRa (NR concentration 270 nM, RXRa partner concentration 90 nM)
Protocol text: PBM binding z-score (relative to random genomic background probes); higher = stronger binding; sequences stand for … in GC…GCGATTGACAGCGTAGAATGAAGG
Some sequences, each annotated with its measured PBM binding z-score.

Chain | PBM binding z-score
ATATCTAGGTAACAAGTTCAGTGAAAGAGAGGAC | 1.07
GGAACGAGGGCAAGTCGATAGCAGAGTTTGATGG | 0.00226
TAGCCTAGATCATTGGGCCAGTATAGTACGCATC | -0.948

Query PBM binding z-score for `TCATATAGGTAATACAGGTGAAGGTCGGCATCTA`
1.34

Query PBM binding z-score for `AGTGAAAGTTCATCTAGGTAACGTAAGATATGCT`
5.92

Query PBM binding z-score for `ATATGTAGGGTATCGGGTCATTCAGTTTGCGCAT`
2.17

Query PBM binding z-score for `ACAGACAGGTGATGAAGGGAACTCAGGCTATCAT`
-0.0438
